Taken from paper PMC7252619.

Target: VEGFR2 (Homo sapiens)
Sequence (P35968 20-1356): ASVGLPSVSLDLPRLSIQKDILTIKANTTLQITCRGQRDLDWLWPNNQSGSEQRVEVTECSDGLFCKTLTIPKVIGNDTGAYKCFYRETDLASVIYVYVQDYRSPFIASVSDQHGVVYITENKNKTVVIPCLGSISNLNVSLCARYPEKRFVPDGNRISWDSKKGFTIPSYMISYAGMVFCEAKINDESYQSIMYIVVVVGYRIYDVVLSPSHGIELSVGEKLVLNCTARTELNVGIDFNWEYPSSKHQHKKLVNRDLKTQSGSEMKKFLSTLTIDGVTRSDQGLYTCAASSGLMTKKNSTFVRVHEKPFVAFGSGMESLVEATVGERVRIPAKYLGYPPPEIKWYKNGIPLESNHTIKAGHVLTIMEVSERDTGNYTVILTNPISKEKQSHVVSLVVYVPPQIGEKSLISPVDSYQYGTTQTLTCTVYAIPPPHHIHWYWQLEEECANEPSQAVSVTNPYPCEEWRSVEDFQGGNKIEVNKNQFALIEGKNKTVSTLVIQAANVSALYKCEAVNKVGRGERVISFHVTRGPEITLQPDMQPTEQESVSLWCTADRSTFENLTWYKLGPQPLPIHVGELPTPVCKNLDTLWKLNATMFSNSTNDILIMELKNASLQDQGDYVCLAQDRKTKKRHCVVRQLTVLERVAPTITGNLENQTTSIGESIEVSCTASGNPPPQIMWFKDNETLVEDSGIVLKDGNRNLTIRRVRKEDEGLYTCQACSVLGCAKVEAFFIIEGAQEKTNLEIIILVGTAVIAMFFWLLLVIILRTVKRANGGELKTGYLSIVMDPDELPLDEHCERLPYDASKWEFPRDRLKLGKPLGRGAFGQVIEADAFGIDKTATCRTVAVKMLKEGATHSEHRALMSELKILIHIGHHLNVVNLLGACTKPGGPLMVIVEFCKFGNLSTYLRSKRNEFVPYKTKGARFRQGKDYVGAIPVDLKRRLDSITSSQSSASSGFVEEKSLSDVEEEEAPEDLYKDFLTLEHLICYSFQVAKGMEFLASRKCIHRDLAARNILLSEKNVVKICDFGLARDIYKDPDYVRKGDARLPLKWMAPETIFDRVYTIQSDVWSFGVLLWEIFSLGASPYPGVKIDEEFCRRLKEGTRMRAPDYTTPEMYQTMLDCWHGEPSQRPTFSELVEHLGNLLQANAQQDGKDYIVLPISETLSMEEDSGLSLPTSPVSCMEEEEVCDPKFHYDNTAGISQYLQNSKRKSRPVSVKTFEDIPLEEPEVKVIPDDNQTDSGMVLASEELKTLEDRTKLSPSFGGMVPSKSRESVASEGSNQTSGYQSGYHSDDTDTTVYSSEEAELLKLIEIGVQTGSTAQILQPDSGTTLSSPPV
Assay: Kinase activity test (ReactionBiology), % enzyme activity relative to DMSO;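 note: VEGFR2 was one member of a ten-kinase screening panel testing marketed FDA-approved drugs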
Type: biochemical
Set-up: purchased ReactionBiology
Conditions: VEGFR2; 10 uM; replicate Data 1
ATTRIBUTE MEASURED: % Enzyme Activity (relative to DMSO controls), Data 1 (%)
Report as a plain number; the unit % is understood.

// lookup % Enzyme Activity (relative to DMSO controls), Data 1 for COc1cccc2c1C(=O)c1c(O)c3c(c(O)c1C2=O)C[C@@](O)(C(=O)CO)C[C@@H]3O[C@H]1C[C@H](N)[C@H](O)[C@H](C)O1
99.85

# % Enzyme Activity (relative to DMSO controls), Data 1 lookup, item CN1CC(=O)N2[C@H](c3ccc4c(c3)OCO4)c3[nH]c4ccccc4c3C[C@@H]2C1=O
98.92

Param item = CCc1nc(N)nc(N)c1-c1ccc(Cl)cc1 ; retrieve measured % Enzyme Activity (relative to DMSO controls), Data 1.
106.39

Which value of % Enzyme Activity (relative to DMSO controls), Data 1 has been reported for Cc1nc(=O)c2cc(CN(C)c3ccc(C(=O)N[C@@H](CCC(=O)O)C(=O)O)s3)ccc2[nH]1 in the records?
105

For the molecule Oc1ccc(O)cc1 [Hydroquinone] , what % Enzyme Activity (relative to DMSO controls), Data 1 is on record?
109.26

I have this molecule here, C[C@]12CCC(=O)C=C1CC[C@@H]1[C@@H]2[C@@H](O)C[C@@]2(C)[C@H]1CC[C@]2(O)C(=O)CO [Hydrocortisone] , and I need its recorded % Enzyme Activity (relative to DMSO controls), Data 1.
99.63

***
Find the recorded % Enzyme Activity (relative to DMSO controls), Data 1 belonging to CC1(C)S[C@@H]2[C@H](NC(=O)[C@H](N)c3ccccc3)C(=O)N2[C@H]1C(=O)O and report it.
95.11

Which % Enzyme Activity (relative to DMSO controls), Data 1 value belongs to Cc1ccc(Cl)c(Nc2ccccc2C(=O)O)c1Cl [Meclofenamate] ?
109.87
